Sourced from patent US20020091148A1

result.type: melting point

>>> assay_result("CSc1c(C(=O)NN=Cc2ccc(Cl)cc2)[nH]c2ccccc12 [Example 108]")
"232 to 235 °C"
>>> assay_result("CN(N=Cc1ccco1)C(=O)c1[nH]c2ccccc2c1-c1ccccc1 [Example 149]")
"196 to 199 °C"
>>> assay_result("O=C(NN=Cc1ccc(Cl)cc1)c1[nH]c2ccccc2c1Cc1ccccc1 [Example 103]")
"221 to 222 °C"
>>> assay_result("CS(=O)(=O)c1c(C(=O)NN=Cc2ccc(Cl)cc2)[nH]c2ccccc12 [Example 110]")
"> 280 °C"
>>> assay_result("COc1c(C(=O)NN=Cc2ccc(Cl)cc2)[nH]c2ccccc12 [Example 118]")
"249 to 251 °C"

----------
result.type: melting point

>>> assay_result("CN(N=Cc1ccc(C#N)cc1)C(=O)c1[nH]c2ccccc2c1-c1ccccc1")
"194 to 196 °C"
>>> assay_result("O=C(NN=Cc1ccc(Cl)cc1)c1[nH]c2ccccc2c1C(=O)Nc1ccccc1")
"> 260 °C"
>>> assay_result("CS(=O)(=O)c1c(C(=O)NN=Cc2cccc3ccccc23)[nH]c2ccccc12")
"> 250 °C"
>>> assay_result("O=C(NN=Cc1ccc(Br)cc1)c1[nH]c2ccccc2c1Cc1ccccc1")
"227 to 229 °C"
>>> assay_result("CCN(CC)C(=O)c1c(C(=O)NN=Cc2ccc(Cl)cc2)[nH]c2ccccc12")
"255 to 257 °C"
>>> assay_result("CN(C)C(=O)c1c(C(=O)NN=Cc2ccc3ccccc3c2)[nH]c2ccccc12")
"256 to 260 °C"
>>> assay_result("CN(N=Cc1cnc[nH]1)C(=O)c1[nH]c2ccccc2c1-c1ccccc1")
"248 to 250 °C"
>>> assay_result("CN(N=Cc1ccc(Br)cc1)C(=O)c1[nH]c2ccccc2c1-c1ccccc1")
"210 to 212 °C"

----------
result.type: melting point

>>> assay_result("CS(=O)(=O)c1c(C(=O)NN=Cc2nccs2)[nH]c2ccccc12 [Example 111]")
"> 280 °C"
>>> assay_result("CSc1c(C(=O)NN=Cc2nccs2)[nH]c2ccccc12 [Example 109]")
"216 to 222 °C"
>>> assay_result("O=C(NN=Cc1ccc(Cl)cc1)c1[nH]c2ccccc2c1Br [Example 119]")
"> 250 °C"
